Assay: Single intravenous dose pharmacokinetics study in rats (1 mg/kg IV; plasma levels of prodrug and of DMT or 5-MeO-DMT by LC-MS/MS)
Conditions: male, Sprague-Dawley, rat, plasma, iv, 1 mg/kg, AUC0-t (nM.hr), IV 1 mg/kg, analyte = dosed compound
Listing of recorded AUC(0-t) by entry.
propertyMeasured: AUC(0-t)

[[record]]
compound = "CC(C)OP(=O)(OC(C)C)n1cc(CCN(C)C)c2ccccc21 [Diisopropylphosphonate DMT Prodrug]"
propertymeasured = "AUC(0-t)"
reported = "0.862 µM·h"

[[record]]
compound = "CCOC(=O)n1cc(CCN(C)C)c2ccccc21 [Compound 20]"
propertymeasured = "AUC(0-t)"
reported = "1.07 µM·h"

[[record]]
compound = "COc1ccc2c(c1)c(CCN(C)C)cn2P(=O)(OC(C)C)OC(C)C [Diisopropylphosphonate 5-MeO-DMT Prodrug]"
propertymeasured = "AUC(0-t)"
reported = "0.273 µM·h"

[[record]]
compound = "CCOC(=O)n1cc(CCN(C)C)c2cc(OC)ccc21 [Compound 19]"
propertymeasured = "AUC(0-t)"
reported = "14.4 µM·h"

[[record]]
compound = "CN(C)CCc1c[nH]c2ccccc12 [DMT, N,N-dimethyltryptamine]"
propertymeasured = "AUC(0-t)"
reported = "1.14 µM·h"

[[record]]
compound = "COc1ccc2[nH]cc(CCN(C)C)c2c1 [Compound 5-MeO-DMT, 5-methoxy-N,N-dimethyltryptamine, reference compound]"
propertymeasured = "AUC(0-t)"
reported = "4.95 µM·h"


###

# key: entry, value: Cmax
Assay: Single oral dose pharmacokinetics study in rats (10 mg/kg PO; plasma levels of prodrug and of metabolite DMT or 5-MeO-DMT by LC-MS/MS)
Settings: male, Sprague-Dawley, rat, plasma, po, 10 mg/kg, C0/Cmax (nM), PO 10 mg/kg, analyte = dosed compound
propertyMeasured: Cmax (nM)

[[record]]
molecule = "CCOC(=O)n1cc(CCN(C)C)c2cc(OC)ccc21"
propertymeasured = "Cmax"
reported = 8.15

[[record]]
molecule = "COc1ccc2c(c1)c(CCN(C)C)cn2P(=O)(OC(C)C)OC(C)C [Diisopropylphosphonate 5-MeO-DMT Prodrug]"
propertymeasured = "Cmax"
reported = 210

[[record]]
molecule = "CC(C)OP(=O)(OC(C)C)n1cc(CCN(C)C)c2ccccc21 [Diisopropylphosphonate DMT Prodrug]"
propertymeasured = "Cmax"
reported = 554

[[record]]
molecule = "CN(C)CCc1c[nH]c2ccccc12"
propertymeasured = "Cmax"
reported = 69.4

[[record]]
molecule = "CCOC(=O)n1cc(CCN(C)C)c2ccccc21"
propertymeasured = "Cmax"
reported = 44.3

[[record]]
molecule = "COc1ccc2[nH]cc(CCN(C)C)c2c1 [Compound 5-MeO-DMT, 5-methoxy-N,N-dimethyltryptamine, reference compound]"
propertymeasured = "Cmax"
reported = 13.9


###

Test: Single oral dose pharmacokinetics study in rats (10 mg/kg PO; plasma levels of prodrug and of metabolite DMT or 5-MeO-DMT by LC-MS/MS)
Conditions: male, Sprague-Dawley, rat, plasma, po, 10 mg/kg, AUC0-last (h*ng/mL), oral 10 mg/Kg, analyte = dosed prodrug, mean
AUC(0-t) for assorted molecules
propertyMeasured: AUC(0-t) (ng·h/mL)

[[record]]
molecule = "CCCOC(=O)n1cc(CCN(C)C)c2cc(OC)ccc21"
propertymeasured = "AUC(0-t)"
reported = 6.45

[[record]]
molecule = "CC(C)COC(=O)n1cc(CCN(C)C)c2ccccc21"
propertymeasured = "AUC(0-t)"
reported = 8.63

[[record]]
molecule = "CC(C)OC(=O)n1cc(CCN(C)C)c2ccccc21"
propertymeasured = "AUC(0-t)"
reported = 39.4

[[record]]
molecule = "COc1ccc2c(c1)c(CCN(C)C)cn2C(=O)OC(C)(C)C"
propertymeasured = "AUC(0-t)"
reported = 17.3

[[record]]
molecule = "CN(C)CCc1cn(C(=O)c2ccccc2)c2ccccc12 [DMT Benzamide]"
propertymeasured = "AUC(0-t)"
reported = 66.5

[[record]]
molecule = "CN(C)CCc1cn(C(=O)OC(C)(C)C)c2ccccc12"
propertymeasured = "AUC(0-t)"
reported = 13.8

[[record]]
molecule = "COc1ccc2c(c1)c(CCN(C)C)cn2C(=O)OC(C)C"
propertymeasured = "AUC(0-t)"
reported = 6.8

[[record]]
molecule = "COc1ccc2c(c1)c(CCN(C)C)cn2C(=O)CCCC(=O)O [5-MeO-DMT Non-Lipid Prodrug 6]"
propertymeasured = "AUC(0-t)"
reported = 362

[[record]]
molecule = "CC(=O)n1cc(CCN(C)C)c2ccccc21"
propertymeasured = "AUC(0-t)"
reported = 2.16

[[record]]
molecule = "COc1ccc2c(c1)c(CCN(C)C)cn2C(=O)CCC(=O)O [5-MeO-DMT Non-Lipid Prodrug 5]"
propertymeasured = "AUC(0-t)"
reported = 85.7

[[record]]
molecule = "CCCOC(=O)n1cc(CCN(C)C)c2ccccc21"
propertymeasured = "AUC(0-t)"
reported = 28.2


Cited source for all entries: patent US11866408B2
